experiment.notes: Pharmacokinetic evaluation in CD-1 mice, gavage
Assay type: in vivo
measurement.parameters: mouse, plasma, po, 10 mg/kg
measurement.type: bioavailability (%)
Answers are plain numbers, in %.

{"substance.smiles": "Cn1cc(-c2cc(Oc3ccc(NC(=O)N4CCC5(CCCC5)C4=O)nc3)ccn2)cn1", "measurement.type": "bioavailability", "recorded.number": 89.5}
{"substance.smiles": "Cc1nc(NC(=O)N2CCC3(CCC(F)(F)CC3)C2=O)ccc1Oc1ccnc(-c2cnn(C)c2)c1", "measurement.type": "bioavailability", "recorded.number": 67.3}

Query block: Consider the compound Cn1cc(-c2cc(Oc3ccc(NC(=O)N4CCC5(CCCCC5)C4=O)nc3)ccn2)cn1 and give its measured bioavailability.
Result block: 71.5

###

experiment.notes: Pharmacokinetic evaluation in CD-1 mice, gavage
Type: in vivo
measurement.parameters: mouse, po, 10 mg/kg, plasma, read-out: T½ (converted)
Source text: Using mice as the test animals, the LC/MS/MS method was used to determine that the mice were intragastrically administered the compound of Example 1, the compound of Example 2, the compound of Example 3, the compound of Example 4, the compound of Example 10, and the compound of Example 14. Compound, the concentration of the drug in the plasma at different times after the compound of Example 26. […]
So basically, if half-life comes in under 3 h it's MET, and if it's 3 h or more it's NOT MET.

See these solved cases before continuing.
{"compound": "Cn1cc(-c2cc(Oc3ccc(NC(=O)N4CCC5(CCCC5)C4=O)nc3)ccn2)cn1 [Compound 3]", "label": "NOT MET"}
{"compound": "Cn1cc(-c2cc(Oc3ccc(NC(=O)N4CCC5(CC5)C4=O)nc3)ccn2)cn1 [Compound 10]", "label": "NOT MET"}
{"compound": "Cn1cc(-c2cc(Oc3ccc(NC(=O)N4CCC5(CCC(F)(F)CC5)C4=O)nc3)ccn2)cn1 [Compound 4]", "label": "MET"}

Query block: Hello, I'm reviewing records and need to know if half-life of Cc1nc(NC(=O)N2CCC3(CCC(F)(F)CC3)C2=O)ccc1Oc1ccnc(-c2cnn(C)c2)c1 [Compound 14] is below 3 h. Could you check?
Result block: NOT MET

Query block: Hello, I'm reviewing records and need to know if half-life of Cn1cc(-c2cc(Oc3ccc(NC(=O)N4CCC5(CCCCC5)C4=O)nc3)ccn2)cn1 [Compound 2] is below 3 h. Could you check?
Result block: NOT MET

Query block: Hello, I'm reviewing records and need to know if half-life of Cn1cc(-c2cc(Oc3ccc(NC(=O)N4CCC5(CCC5)C4=O)nc3)ccn2)cn1 [Compound 1] is below 3 h. Could you check?
Result block: MET

Query block: Hello, I'm reviewing records and need to know if half-life of Cn1cc(-c2cc(Oc3ccc(NC(=O)N4CCC5(CC(F)(F)C5)C4=O)nc3)ccn2)cn1 [Compound 26] is below 3 h. Could you check?
Result block: NOT MET

###

system.tested: FMS (Homo sapiens (Human), UniProt P07333)
Sequence (P07333 20-972): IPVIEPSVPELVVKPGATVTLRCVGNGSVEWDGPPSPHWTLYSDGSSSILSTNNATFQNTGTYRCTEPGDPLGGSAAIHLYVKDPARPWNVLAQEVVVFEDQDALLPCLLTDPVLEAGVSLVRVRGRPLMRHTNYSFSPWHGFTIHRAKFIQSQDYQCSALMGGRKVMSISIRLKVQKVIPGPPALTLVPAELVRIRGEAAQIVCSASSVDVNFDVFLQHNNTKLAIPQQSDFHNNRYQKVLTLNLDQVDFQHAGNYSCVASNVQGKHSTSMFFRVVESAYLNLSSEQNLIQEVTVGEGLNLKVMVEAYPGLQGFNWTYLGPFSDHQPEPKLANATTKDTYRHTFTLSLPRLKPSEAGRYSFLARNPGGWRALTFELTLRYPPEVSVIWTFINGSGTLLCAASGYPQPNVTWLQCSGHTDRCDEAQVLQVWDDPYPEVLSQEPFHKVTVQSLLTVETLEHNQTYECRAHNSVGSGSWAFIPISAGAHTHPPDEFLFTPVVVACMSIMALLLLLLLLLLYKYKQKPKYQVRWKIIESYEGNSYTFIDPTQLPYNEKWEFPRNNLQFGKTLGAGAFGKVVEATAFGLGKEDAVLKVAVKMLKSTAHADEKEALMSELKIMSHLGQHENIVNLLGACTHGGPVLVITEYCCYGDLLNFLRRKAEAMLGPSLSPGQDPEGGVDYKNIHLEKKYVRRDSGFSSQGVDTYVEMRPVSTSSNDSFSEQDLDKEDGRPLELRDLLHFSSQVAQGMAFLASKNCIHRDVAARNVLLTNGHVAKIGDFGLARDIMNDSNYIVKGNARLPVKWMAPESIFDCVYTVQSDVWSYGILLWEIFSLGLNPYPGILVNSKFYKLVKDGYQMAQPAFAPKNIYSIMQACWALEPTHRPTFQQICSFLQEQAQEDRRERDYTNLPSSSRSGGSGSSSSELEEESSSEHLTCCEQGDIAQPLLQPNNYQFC
measurement.type: EC50 (nM)
One number for each entry, in nM.

Query block: Consider the molecule Cn1cc(-c2cc(Oc3ccc(NC(=O)N4CCC5(CC5)C4=O)nc3)ccn2)cn1 and give its measured EC50.
Result block: 4
